Test system: UACC-257
assayMethodText: NCI tumour cell line growth inhibition, 48 h
Activity calls are given as the source filed them. No stated cut-off is given here; in the data, active = GI50 up to about 1.1 µM and inactive = higher.
quantity: GI50

> print(dat)
                                    compound  systemtested  quantity            measvalue
 1  CCOC(=O)/C=C(\C(=O)OCC)n1ccc(=O)n(Cc2cnnn2COCCOC(C)=O)c1=O      UACC-257      GI50   16.2 µM (inactive)
 2  O=C(CC(=O)n1nc(-c2ccccc2)c(/N=N/c2ccc(Cl)cc2)c1-c1ccccc1)Nc1cccc(Cl)c1      UACC-257      GI50  > 100 µM (inactive)
 3             Cc1ccnc2nc3[nH]c4ccccc4c3cc12      UACC-257      GI50   89.5 µM (inactive)
 4  COC(=O)C(/C(=N/NC(N)=S)C(=O)Nc1ccccc1[N+](=O)[O-])c1cnc2ccccc2n1 (stereo not drawn)      UACC-257      GI50  > 100 µM (inactive)
 5  COc1ccccc1C1Nn2c(nc3ccccc3c2=O)N1c1ccc(C)cc1 (stereo not drawn)      UACC-257      GI50   16.3 µM (inactive)
 6        CC(=O)Oc1cccc2c1C(=O)C(Br)(Br)CCC2      UACC-257      GI50   10.9 µM (inactive)
 7  O=C(c1ccc2ccccc2c1)N(Cc1cccnc1)C(=S)N(Cc1cccnc1)C(=O)c1ccc2ccccc2c1      UACC-257      GI50   19.5 µM (inactive)
 8         Clc1ccccc1C(SCc1ccccc1)SCc1ccccc1      UACC-257      GI50  > 100 µM (inactive)
 9  N#CC(C(=O)/C(=N/N)C(C#N)c1ccc(Cl)cc1)c1ccc(Cl)cc1 (stereo not drawn)      UACC-257      GI50  > 100 µM (inactive)
10  CC(C)(O)C1OCC(C2CCC3(C)C4=CCC5C(C)(C)C(O)CCC5(C)C4CCC23C)CC1O (stereo not drawn)      UACC-257      GI50   18.4 µM (inactive)
11               c1ccc2nc3c(nc2c1)sc1ccccc13      UACC-257      GI50   37.2 µM (inactive)
12  CC1OC23CCCCC2C(C#N)(C#N)C1(C#N)C(=N)O3 (stereo not drawn)      UACC-257      GI50     18 µM (inactive)
13                CC1(C)CN=C(Nc2ccc(F)cc2)S1      UACC-257      GI50  > 100 µM (inactive)
14          COc1ccc(/N=c2\ssc3c(=S)ssc23)cc1      UACC-257      GI50   > 10 µM (inactive)
15                  CCOc1ncnc2ccc(Cl)c(I)c12      UACC-257      GI50  > 100 µM (inactive)
16                  COc1ccccc1/C=N/N=C(\N)NO      UACC-257      GI50   29.1 µM (inactive)
17  CCOC(=O)C1(C(F)(F)F)N=C(CC)OC(N2CCOCC2)=N1 (stereo not drawn)      UACC-257      GI50  > 100 µM (inactive)
18        OCCCOC(c1ccccc1)(c1ccccc1)c1ccccc1      UACC-257      GI50  > 100 µM (inactive)
